Origin of the recorded values: the nanobody polyreactivity screen of Harvey et al. (2022)

experiment_notes: yeast display, Sf9 membrane polyspecificity reagent, FACS + sequencing; frameworks hold sequencing errors
observable: polyreactivity (PSR sort gate)

1. QVQLVESGGGLVQAGGSLRLSCAASGRIFPAYAMGWYKQAPGKERELVASIRRGGITYADSVKGRFTISRDNAKNTVYLQMNSLKPEDTAVYYCNADYRGWGYHMDYWGQGTKVTVSS; low polyreactivity
2. QVQLVESGGGLVQAGGSLSLSCAASGIFSRYAMGWYRQAPGKERELVAAISSGGSTYYAESVKGRFTISRDNAKNTVYLQMNSLKPEDTAVYYCSVKQRDKFAGGRNDYWGQGTQVTVSS; high polyreactivity
3. QVQLVESGGGLVQAGGSLRLSCAAYGSIFCIFAMGWYRQAPGKEWELVAAISSDGSTKYADSVKGRFTISRDNAKNTVYFQMNSLKPEDTAVYYCAKLKYVRIGGPKQSMALDYWGQGTQVTVSS; low polyreactivity
4. QVQLVESGGGLVQAGGSLRLSCAASGYIILGYAMGWYRQAPGKERELVAVINWSGGRTRYADSVKGRFTISRDNAKNTVYLQMNSLKPEDTAVYYCAAERSITYDYWGQGTQVTVSS; high polyreactivity
5. QVQLVESGGGLVQAGGSLRLSCAASGSIFVVYAMGWSREGPGKERELVAAISWGIGSTYYADSVKGRFTISRDNAKNTVYLQPNSLKPEDTAVYYCAADTDIVLYDYWGQGTQVTVSS; low polyreactivity
6. QVQLVESGGGLVQAGGSLRLSCAASGRIFHYYAMGWYRQAPGIERELVAAIRYSGGRTYYADSVKGRFTISRDNAKNTVYLQMNSLKPEDTAFYYCNAVPYVYKTITGDDYWGQGTQVTVSS; high polyreactivity

Required: polyreactivity (PSR sort gate), one value per sequence below.
1. QVQLVESGGGLVQAGGSLRLSCAASGSSFYVNAMGWYRQAPGKEREFVAAITWNSGSTYYADSVKGRFTISRDNEKNTVYLQMNSLKPEDTAVYYCAAVLSGRVYGYDYWGQGTQVTVSS
2. QVQLVESGGGIVQAGGSLRLSCAASGFTFKYYARGWYRQAPGKERELVAAIRGSGAGTYYADSVKGRFTISRDNAKNTGYLQMNSLKPEDTAVYYCNKRWTYKWDDYWGQGTQVTVSS

1: low polyreactivity; 2: high polyreactivity

Could you report polyreactivity (PSR sort gate) for every entry in the following list?
1. QVQLVESGGRLVQAGGSLRLSCAASGRTFGPYAIGRYRQAPGKERELVAAITDTGSGTYYADSVKGRFTISRDNAKNTVYLQMNSLKPEDTAVYYCNAVRKYWGQGTQVTVSS
2. QVQHVESGGGLVQAGGSLRLSCAASGSTFYLYAMGWYRQAPGTERELLAAITYSGDRTRYADSVKGRFTISRDNAKNTVYLQMNSLKPEDTAVYYCAAPYVGARNAYRMCYWGQGTQVTVSS
3. QVQLVESGGGLVQAGGSLRLSCAASGRIFSDYAMGWYRQAPGKERELVATITSGDSTNYEDSVKGRFTISRDNAKNTVYLQMNSLKPVDTAVYYCIADRYADYDYWGQGTQVTVSS

1: low polyreactivity; 2: high polyreactivity; 3: low polyreactivity
